system: ICS; assay: qHTS profiling for inhibitors of Plasmodium falciparum proliferation (AID 504749); note: nearly all actives have a fitted effect of over 60% in size; settings: P. falciparum in erythrocytes, SYBR Green DNA, 72 h; series mostly up to 28.7 µM
Results filed as inconclusive are left out. Calls of active or inactive are those of the source. Calls come from the whole dose curve; as a rule, active = well fitted inhibition curve with a large enough effect; inconclusive = small, poorly fitted or top-dose-only effect; inactive = flat fitted curve, though single readings scatter.
Outcome codes: y = active, n = inactive

>>> label("CCOC(=O)C1=C[C@]2(CC)CCCN3CCc4c(n1c1ccccc41)[C@@H]32")
"y"
>>> label("Cc1cc2c(C(C)C)c(O)c(O)c(C=O)c2c(O)c1-c1c(C)cc2c(C(C)C)c(O)c(O)c(C=O)c2c1O")
"y"
>>> label("CCCCNc1cc(C(=O)O)cc(S(N)(=O)=O)c1Oc1ccccc1")
"n"
>>> label("CC(C)NCC(O)COc1ccc(COCCOC(C)C)cc1 (configuration not stated)")
"n"
>>> label("O=C1CCC(N2C(=O)c3ccccc3C2=O)C(=O)N1 (configuration not stated)")
"n"
>>> label("Cc1[nH]c(=O)c(C#N)cc1-c1ccncc1")
"n"
>>> label("NS(=O)(=O)c1cc2c(cc1Cl)NC=NS2(=O)=O")
"n"
>>> label("CCCc1nn(C)c2c(=O)[nH]c(-c3cc(S(=O)(=O)N4CCN(C)CC4)ccc3OCC)nc12")
"y"
>>> label("CC(C[N+](C)(C)C)OC(N)=O (configuration not stated)")
"n"
>>> label("NC(=O)c1cnccn1")
"n"
>>> label("OC(CN1CCC(Cc2ccc(F)cc2)CC1)c1ccc(Cl)cc1 (configuration not stated)")
"y"
>>> label("O=c1n(CCCN2CCN(c3cccc(Cl)c3)CC2)nc2ccccn12")
"n"
>>> label("NCCCC(N)(C(=O)O)C(F)F (configuration not stated)")
"n"
>>> label("Nc1nc2c(ncn2COCCO)c(=O)[nH]1")
"n"
>>> label("NC[C@H](O)c1ccc(O)c(O)c1")
"n"
>>> label("CNC[C@H](O)c1cccc(O)c1")
"n"
>>> label("CCCc1nc2c(C)cc(-c3nc4ccccc4n3C)cc2n1Cc1ccc(-c2ccccc2C(=O)O)cc1")
"y"
>>> label("C#Cc1cccc(Nc2ncnc3cc(OCCOC)c(OCCOC)cc23)c1")
"y"
>>> label("CC(=O)Oc1ccccc1C(=O)O")
"n"
>>> label("Cc1ccc(N(CC2=NCCN2)c2cccc(O)c2)cc1")
"n"
>>> label("O=C1CCc2cc(OCCCCc3nnnn3C3CCCCC3)ccc2N1")
"n"
>>> label("N=c1nc(N2CCCCC2)cc(N)n1O")
"n"

---

Test: Quantitative High-Throughput drug screen in 47 multiple myeloma cell lines against the NCATS MIPE library collection: EJM_DSMZ cell viability assay (AID 1918926; note: nearly all actives have a fitted effect of over 30% in size)
Details: EJM myeloma cell viability, CellTiter-Glo ATP, 48 h; series mostly up to 45.8 µM
Excerpt: PI: Beverly A. Mock Ph.D. Laboratory of Cancer Biology and Genetics, Center for Cancer Research, National Cancer Institute, National Institute of Health, Bethesda, Maryland […] 5; Detector; 425V; Luminescence; Viewlux PerkinElmer. […] 1. […] Briefly, the corresponding myeloma cell lines were screened in 1,536-well plates with 500 cells, 5-uL per well for inhibition of cell viability (assessed by measuring ATP levels with CellTiterGlo). […]
Results filed as inconclusive are left out. Active and inactive are the calls of the source. The call rests on the fitted dose curve; in most records, active means well fitted cell-killing curve with a large enough effect; inconclusive means small, poorly fitted or top-dose-only effect, or effect the other way; inactive means no such curve, though single readings can be large or run the other way.
Possible outcomes: Y = active, N = inactive

>>> label("Nc1nc2ccc(OC(F)(F)F)cc2s1")
"N"
>>> label("Cc1c(C)c2c(c(C)c1O)CCC(C)(COc1ccc(CC3SC(=O)NC3=O)cc1)O2 (centres undefined)")
"N"
>>> label("CN[C@@H](C)C(=O)N[C@H]1CCCC[C@H]2CC[C@@H](C(=O)N[C@@H](c3ccccc3)c3cn(CCCCc4ccc(CCCCn5cc([C@@H](NC(=O)[C@@H]6CC[C@@H]7CCCC[C@H](NC(=O)[C@H](C)NC)C(=O)N76)c6ccccc6)nn5)cc4)nn3)N2C1=O")
"Y"
>>> label("CS(=O)(=O)c1ccc(C(=O)Nc2ccc(Cl)c(-c3ccccn3)c2)c(Cl)c1")
"N"

---

assay: qHTS Assay for Identifying Gametocytocidal Compounds (AID 743244);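 note: % is set by controls: 0 for no effect and ±100 for the full control effect; actives lower the fluorescent signal which means gametocytes are killed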; conditions: P. falciparum 3D7 stage III-V gametocytes, alamarBlue, 72 h; active compounds read low
Records with an inconclusive call do not appear.
reportedMetric: max response (%)

>>> resultnumber("CCCc1nn(C)c2c(=O)[nH]c(-c3cc(S(=O)(=O)N4CCN(C)CC4)ccc3OCC)nc12")
18.4
>>> resultnumber("CCC(C)(C)C(=O)O[C@H]1C[C@@H](C)C=C2C=C[C@H](C)[C@H](CC[C@@H]3C[C@@H](O)CC(=O)O3)[C@H]21")
5.81
>>> resultnumber("CC[C@H](Nc1ncnc2nc[nH]c12)c1nc2cccc(F)c2c(=O)n1-c1ccccc1")
14.6
>>> resultnumber("Cc1cc(Nc2nc(N[C@@H](C)c3ncc(F)cn3)ncc2Cl)n[nH]1")
8.89
>>> resultnumber("O=C(Nc1ccc(F)c(C(F)(F)F)c1)Nc1nnc(-c2ccncc2)s1")
6.18
>>> resultnumber("O=C(O)[C@@H](c1ccc(OCc2ccc3ccccc3n2)cc1)C1CCCC1")
46.8
>>> resultnumber("COc1nc(-c2ccc3c(c2)OCO3)n(-c2ccc(NC(=O)CSc3ccccc3)cc2)n1")
6.75
>>> resultnumber("Cc1ccc2c(c1)C(=O)[C@@]1(O)CCN(c3ccccc3)C1=N2")
-1.35
>>> resultnumber("Cc1cc(-c2ccc(CC(=O)Nc3ccc(-c4cccnc4)cc3)cc2)ccn1")
17.3
>>> resultnumber("CCOC(=O)C1=C[C@]2(CC)CCCN3CCc4c(n1c1ccccc41)[C@@H]32")
-1.66
>>> resultnumber("Cc1cc([C@@H](C)Nc2ccccc2C(=O)O)c2nc(N3CCOCC3)cc(=O)n2c1")
-4.48
>>> resultnumber("CCC(=O)N[C@H]1CC[C@H](C(=O)N(C)c2ccc(-c3nc4ccccc4o3)cc2)C1")
65.6
>>> resultnumber("C[C@@H]1C[C@H]2[C@@H]3CCC4=CC(=O)C=C[C@]4(C)C3(F)[C@@H](O)C[C@]2(C)[C@@]1(O)C(=O)CO (some centres not stated)")
2.96
>>> resultnumber("COc1ccccc1-c1cccc(-c2c(O)c3cc(C#N)c(Cl)cc3[nH]c2=O)c1")
99.8
>>> resultnumber("Cn1cnc2c(F)c(Nc3ccc(Br)cc3Cl)c(C(=O)NOCCO)cc21")
17.6
>>> resultnumber("Cc1n[nH]c(C)c1Cc1sc2c(c1C(=O)N1C[C@H](O)CO1)c(=O)n(C)c(=O)n2CC(C)C")
4.91
>>> resultnumber("C[C@H](NC(=O)Cc1cc(F)cc(F)c1)C(=O)N[C@@H]1C(=O)N(C)c2ccccc2-c2ccccc21")
-14.2
>>> resultnumber("O=C1CCCC2=C1C(c1[nH]ncc1Cl)N=C(Nc1nc3ccccc3o1)N2 (configuration not stated)")
6.89
>>> resultnumber("Cc1ccnc(NS(=O)(=O)c2ccc(NC(=O)Nc3ccc(S(=O)(=O)Nc4nccc(C)n4)cc3)cc2)n1")
-10.8
>>> resultnumber("C[C@]12CC[C@H](O)CC1=CC[C@@H]1[C@H]2CC[C@]2(C)C(c3cccnc3)=CC[C@H]12")
-8.9
>>> resultnumber("CN(C(=O)c1ccc(F)cc1C(F)(F)F)C1CCN(c2nnc(-c3ccnn3C)c3ccccc23)CC1")
1.04
>>> resultnumber("CN(C)C(=O)c1ccc(S(=O)(=O)c2ccc(NC(=O)[C@@](C)(O)C(F)(F)F)c(Cl)c2)cc1")
2.79
>>> resultnumber("CC(C)c1onc(-c2c(Cl)cccc2Cl)c1COc1ccc(/C=C/c2cccc(C(=O)O)c2)c(Cl)c1")
14.5
>>> resultnumber("CCCS(=O)(=O)Nc1ccc(F)c(C(=O)c2c[nH]c3ncc(Cl)cc23)c1F")
35.4
>>> resultnumber("COCCNCCCn1c(C(=O)CF)c(-c2ccc(C)cc2)c2c(N)ncnc21")
-16.2
>>> resultnumber("CC1(C)Cc2c(-c3ccccc3)c(-c3ccc(Cl)cc3)c(CC(=O)O)n2C1")
1.94
>>> resultnumber("O=C(Nc1cccnc1)N1CCC(Cc2cccc(Oc3ccc(C(F)(F)F)cn3)c2)CC1")
-7.98
>>> resultnumber("CCC(C)n1ncn(-c2ccc(N3CCN(c4ccc(OC[C@H]5CO[C@](Cn6cncn6)(c6ccc(Cl)cc6Cl)O5)cc4)CC3)cc2)c1=O (some centres not stated)")
3.11
>>> resultnumber("CCCS(=O)(=O)Nc1ccc(F)c(C(=O)c2c[nH]c3ncc(-c4ccc(Cl)cc4)cc23)c1F")
14.6
>>> resultnumber("COc1cc(Oc2ccnc3cc(OC)c(OC)cc23)ccc1NC(=O)NC(C)c1nccs1 (configuration not stated)")
6.55
>>> resultnumber("CC(C[N+](C)(C)C)OC(N)=O (configuration not stated)")
11.1
>>> resultnumber("COc1ccc(CC2=NN3C([C@@H](CCc4ccccc4)[C@@H](C)O)=NC(C)C3C(=O)N2)cc1OC (some centres not stated)")
-6.02
>>> resultnumber("Cc1csc(NC(=O)c2sc3nc4c(c(C(F)(F)F)c3c2N)CCC4)n1")
13.6
>>> resultnumber("CCC(C)N(C)C(=O)c1cc2ccccc2c(-c2ccccc2Cl)n1 (configuration not stated)")
24.9
>>> resultnumber("O=c1[nH]c(-c2ccc(C(F)(F)F)cc2)nc2c1CSCC2")
12
>>> resultnumber("Nc1nccc(-c2ccc3noc(-c4ccc(Cl)cc4)c3c2)n1")
-14.8
>>> resultnumber("CC1(C)SCCN(S(=O)(=O)c2ccc(OCC#CCO)cc2)[C@@H]1C(=O)NO")
1.92
